Tested on: S. aureus ATCC 33593
Reported Conditions: LYM broth, 300 mM (NaCl); 16 h, 37 °C
Metric Name: MIC (µg/mL)
The reply should be a number in µg/mL, with the unit left off.

Some substances with recorded MIC:
1) Ac-KKKKWRKWLKWLA-NH2 [Peptide W5K11] ... 6.25
2) Ac-WLKWLAKKKKWRK-NH2 [Peptide W5K05] ... 50

For record Ac-AKKKKWRKWLKWL-NH2 [Peptide W5K10] the listed MIC is 25

----------
Item-by-item account of MIC
Tested on: S. aureus ATCC 33591
Reported Conditions: LYM broth, 0 mM NaCl; 16 h, 37 °C
The reply should be a number in µg/mL, with the unit left off.

Some substances with recorded MIC:
1. Ac-KKKWRKWLKWLAK-NH2 [Peptide W5K12] ... 3.13
2. Ac-LKWLAKKKKWRKW-NH2 [Peptide W5K06] ... 12.5
3. Ac-WLKWLAKKKKWRK-NH2 [Peptide W5K05] ... 6.25

For record Ac-WRKWLKWLAKKKK-NH2 [Peptide W5K02] the listed MIC is 6.25

For record Ac-KKKKWRKWLKWLA-NH2 [Peptide W5K11] the listed MIC is 3.13

For record Ac-KWLAKKKKWRKWL-NH2 [Peptide W5K07] the listed MIC is 25

----------
Item-by-item account of log10(MIC)
Tested on: Pseudomonas aeruginosa Migula (ATCC 27853)
Reported Conditions: LYM broth, 200 mM (NaCl); 16 h, 37 °C
// units: µg/mL (pre-log); metric: MIC; scale: log10

1) Ac-KKKWRKWLKWLAK-NH2 [Peptide W5K12] ... 0.80
2) Ac-RKWLKWLAKKKKW-NH2 [Peptide W5K03] ... 1.40
3) Ac-AKKKKWRKWLKWL-NH2 [Peptide W5K10] ... 1.10
4) Ac-LAKKKKWRKWLKW-NH2 [Peptide W5K09] ... 1.70

Entry Ac-KKKKWRKWLKWLA-NH2 [Peptide W5K11] , tested on Pseudomonas aeruginosa Migula (ATCC 27853), has a reported log10(MIC) of 0.50

Entry Ac-KKWRKWLKWLAKK-NH2 [W5K/A9W] , tested on Pseudomonas aeruginosa Migula (ATCC 27853), has a reported log10(MIC) of 0.50

Entry Ac-WLAKKKKWRKWLK-NH2 [Peptide W5K08] , tested on Pseudomonas aeruginosa Migula (ATCC 27853), has a reported log10(MIC) of 1.70

----------
Item-by-item account of MIC
System: S. aureus ATCC 6538
Reported Conditions: LYM broth, pH 4.5
The reply should be a number in µg/mL, with the unit left off.

1) Ac-RKWLKWLAKKKKW-NH2 [Peptide W5K03] ... 6.25
2) Ac-LKWLAKKKKWRKW-NH2 [Peptide W5K06] ... 6.25
3) Ac-KKWRKWLKWLAKK-NH2 [W5K/A9W] ... 3.13
4) Ac-KWLAKKKKWRKWL-NH2 [Peptide W5K07] ... 6.25

For record Ac-KWLKWLAKKKKWR-NH2 [Peptide W5K04] the listed MIC is 6.25

For record Ac-KWRKWLKWLAKKK-NH2 [Peptide W5K01] the listed MIC is 3.13

For record Ac-AKKKKWRKWLKWL-NH2 [Peptide W5K10] the listed MIC is 6.25

For record Ac-KKKWRKWLKWLAK-NH2 [Peptide W5K12] the listed MIC is 3.13

For record Ac-WRKWLKWLAKKKK-NH2 [Peptide W5K02] the listed MIC is 6.25

For record Ac-WLAKKKKWRKWLK-NH2 [Peptide W5K08] the listed MIC is 12.5

For record Ac-KKKKWRKWLKWLA-NH2 [Peptide W5K11] the listed MIC is 3.13

For record Ac-WLKWLAKKKKWRK-NH2 [Peptide W5K05] the listed MIC is 3.13

For record Ac-LAKKKKWRKWLKW-NH2 [Peptide W5K09] the listed MIC is 6.25

----------
Tested on: Gram-negative bacteria
Experiment Summary: Geometric mean MIC and therapeutic index, Gram-negative bacteria
Assay type: cell-based
Reported Conditions: HC10/GM, Gram-negative bacteria
Experimental: In this study, we aimed to investigate the potential of W5K series peptides for therapeutic use. To evaluate their efficacy for antibacterial therapy, we used the Therapeutic Index (TI) as a measure of their cell selectivity. The TI was calculated as the ratio of the concentration causing 10% hemolysis of human red blood cells (HC10) to the geometric mean minimum inhibitory concentration (GM) of the peptides against both Gram-negative and Gram-positive bacteria. […]
Returns the class for an entry based on its Therapeutic Index (TI) G−. Class ranges: lower level: < 5; middle level: ≥ 5 and < 9; upper level: ≥ 9

Request: Which bin should I file Ac-WRKWLKWLAKKKK-NH2 [Peptide W5K02] under?
Result: lower level

Request: Which bin should I file Ac-LAKKKKWRKWLKW-NH2 [Peptide W5K09] under?
Result: lower level

Request: Which bin should I file Ac-KKKWRKWLKWLAK-NH2 [Peptide W5K12] under?
Result: upper level

Request: Which bin should I file Ac-KWLKWLAKKKKWR-NH2 [Peptide W5K04] under?
Result: middle level

----------
System: S. aureus ATCC 33591
Reported Conditions: LYM broth, 100 mM NaCl; 16 h, 37 °C
Item-by-item account of MIC
The reply should be a number in µg/mL, with the unit left off.

Some substances with recorded MIC:
1) Ac-LAKKKKWRKWLKW-NH2 [Peptide W5K09] ... 50
2) Ac-RKWLKWLAKKKKW-NH2 [Peptide W5K03] ... 50
3) Ac-AKKKKWRKWLKWL-NH2 [Peptide W5K10] ... 6.25
4) Ac-KKWRKWLKWLAKK-NH2 [W5K/A9W] ... 6.25

For record Ac-WRKWLKWLAKKKK-NH2 [Peptide W5K02] the listed MIC is 12.5

----------
Item-by-item account of MIC
Tested on: Pseudomonas aeruginosa Migula (ATCC 27853)
Reported Conditions: LYM broth, 0 mM NaCl; 16 h, 37 °C
The reply should be a number in µg/mL, with the unit left off.

Some substances with recorded MIC:
1) Ac-RKWLKWLAKKKKW-NH2 [Peptide W5K03] ... 6.25
2) Ac-LKWLAKKKKWRKW-NH2 [Peptide W5K06] ... 6.25
3) Ac-KWRKWLKWLAKKK-NH2 [Peptide W5K01] ... 3.13
4) Ac-KKKKWRKWLKWLA-NH2 [Peptide W5K11] ... 1.56
5) Ac-WLKWLAKKKKWRK-NH2 [Peptide W5K05] ... 3.13

Shift focus to the following entry.
For record Ac-KWLKWLAKKKKWR-NH2 [Peptide W5K04] the listed MIC is 12.5

----------
Item-by-item account of log10 MIC
System: A. baumannii 14B0097 (Acinetobacter sp., BCRC number 14B0097)
Reported Conditions: LYM broth, 200 mM (NaCl); 16 h, 37 °C
Description: The antibacterial and salt-resistant activity of the peptides was tested using Escherichia coli (ATCC 25922), Pseudomonas aeruginosa Migula (ATCC 27853), Acinetobacter sp. […] The inoculum concentrations were determined by measuring the optical density at 600 nm (OD 600 = 1, approximately 10^8 CFU/mL) using an Ultrospec 2100 pro UV-Visible spectrophotometer (Biochrom Ltd., Cambridge, UK) after 8 h of culture. […]
// units: µg/mL (pre-log); metric: MIC; scale: log10

1) Ac-LKWLAKKKKWRKW-NH2 [Peptide W5K06] ... 1.70

For record Ac-AKKKKWRKWLKWL-NH2 [Peptide W5K10] the listed log10 MIC is 0.19

For record Ac-LAKKKKWRKWLKW-NH2 [Peptide W5K09] the listed log10 MIC is 1.70

For record Ac-KWLAKKKKWRKWL-NH2 [Peptide W5K07] the listed log10 MIC is 1.70

For record Ac-WLKWLAKKKKWRK-NH2 [Peptide W5K05] the listed log10 MIC is 0.80

For record Ac-KKWRKWLKWLAKK-NH2 [W5K/A9W] the listed log10 MIC is 0.19

----------
Test system: S. aureus ATCC 33593
Reported Conditions: LYM broth, pH 6.5
Item-by-item account of MIC
The reply should be a number in µg/mL, with the unit left off.

1. Ac-LKWLAKKKKWRKW-NH2 [Peptide W5K06] ... 6.25

For record Ac-KKWRKWLKWLAKK-NH2 [W5K/A9W] the listed MIC is 3.13

For record Ac-KKKWRKWLKWLAK-NH2 [Peptide W5K12] the listed MIC is 1.56

For record Ac-WRKWLKWLAKKKK-NH2 [Peptide W5K02] the listed MIC is 3.13

For record Ac-RKWLKWLAKKKKW-NH2 [Peptide W5K03] the listed MIC is 12.5

For record Ac-WLKWLAKKKKWRK-NH2 [Peptide W5K05] the listed MIC is 3.13

For record Ac-LAKKKKWRKWLKW-NH2 [Peptide W5K09] the listed MIC is 12.5
